System: Saccharomyces cerevisiae
assay-info: protein stability index of tFT-peptide fusion (C-terminal peptide) (PSI (0-1 scale)); higher = more stable (slower turnover);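 further: PSI is a weighted mean of sequencing reads over stability bins, variants kept only with over 10 reads, mCherry proximal and sfGFP distal, peptide attached via GGGS linker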
assay-setup: genetic background: wild type; temperature: 30 C
rule met means recorded protein stability index is 0.7 or above; rule not met means it is below 0.7.

>  <residue-string>
LFSFVCLVFFLW

>  <assigned-class>
rule not met

$$$$
>  <residue-string>
SESLLSQPIVLV

>  <assigned-class>
rule not met

$$$$
>  <residue-string>
FLAWPRSDYPGF

>  <assigned-class>
rule met

$$$$
>  <residue-string>
PPAPLAPPPAGC

>  <assigned-class>
rule not met

$$$$
>  <residue-string>
LRSGSLVSLPPL

>  <assigned-class>
rule met

$$$$
>  <residue-string>
SPPSPPPSPPTL

>  <assigned-class>
rule met

$$$$
>  <residue-string>
REENIKSKCRKI

>  <assigned-class>
rule met

$$$$
>  <residue-string>
FPPIHIHSPCYP

>  <assigned-class>
rule met

$$$$
>  <residue-string>
VRGVGLVDVVGL

>  <assigned-class>
rule met

$$$$
>  <residue-string>
YKNKKKKKNNKK

>  <assigned-class>
rule not met

$$$$
>  <residue-string>
YDLLLLLSLSRP

>  <assigned-class>
rule not met

$$$$
>  <residue-string>
TRFFFLLCRRSL

>  <assigned-class>
rule not met

$$$$
>  <residue-string>
LRCLLAHIAGRG

>  <assigned-class>
rule not met

$$$$
>  <residue-string>
ILPCSRYNILNV

>  <assigned-class>
rule not met

$$$$
>  <residue-string>
VGRVIVIVVAGV

>  <assigned-class>
rule not met

$$$$
>  <residue-string>
KKEEIIIGGKKI

>  <assigned-class>
rule not met

$$$$
>  <residue-string>
PWTAHVWSMVLG

>  <assigned-class>
rule not met

$$$$
>  <residue-string>
PHYPQSHPADPV

>  <assigned-class>
rule not met

$$$$
>  <residue-string>
SLSSSFQFSSPS

>  <assigned-class>
rule met

$$$$
>  <residue-string>
LSLASTGVDSGG

>  <assigned-class>
rule met

$$$$
>  <residue-string>
DRRLGKHEYQPY

>  <assigned-class>
rule met

$$$$
>  <residue-string>
EKESERGREKDS

>  <assigned-class>
rule met

$$$$
>  <residue-string>
QESSDSRHATIR

>  <assigned-class>
rule not met

$$$$
>  <residue-string>
LLYHFCLFFFRE

>  <assigned-class>
rule not met

$$$$

* * *

Test system: Saccharomyces cerevisiae
assay-info: protein stability index of tFT-peptide fusion (C-terminal peptide) (PSI (0-1 scale)); higher = more stable (slower turnover)
assay-setup: genetic background: wild type; temperature: 30 C
So basically, the class depends on measured protein stability index, and the ranges are Low (below 0.6), Mid (0.6 to below 0.7), High (0.7 or more)

>  <residue-string>
TFRVRRQKNRNM

>  <assigned-class>
Low

$$$$
>  <residue-string>
HSWFSWSVVSEL

>  <assigned-class>
High

$$$$
>  <residue-string>
LPRAAISRKFAT

>  <assigned-class>
Mid

$$$$
>  <residue-string>
GSLHWVMVFAVP

>  <assigned-class>
Low

$$$$
>  <residue-string>
GILVDGRGRGCR

>  <assigned-class>
High

$$$$
>  <residue-string>
VTTQELRCRPEG

>  <assigned-class>
Mid

$$$$
>  <residue-string>
SPPPPPPSPPLH

>  <assigned-class>
High

$$$$
>  <residue-string>
RIDHYIFYVNAV

>  <assigned-class>
Mid

$$$$
>  <residue-string>
QTWVQIGIRITL

>  <assigned-class>
Low

$$$$
>  <residue-string>
SPPPGHPPLVPN

>  <assigned-class>
High

$$$$
>  <residue-string>
NGSLRVVSGGFC

>  <assigned-class>
Mid

$$$$
>  <residue-string>
FRLILGCPFACL

>  <assigned-class>
Low

$$$$
>  <residue-string>
PLLPSGIPLFLS

>  <assigned-class>
Low

$$$$
>  <residue-string>
HNQDKNVKYKIG

>  <assigned-class>
Low

$$$$
>  <residue-string>
LGVCLFFVRCWS

>  <assigned-class>
Low

$$$$
>  <residue-string>
SRGRVLRLLLLV

>  <assigned-class>
Low

$$$$
>  <residue-string>
VCLRVGQGVLWW

>  <assigned-class>
High

$$$$
>  <residue-string>
PPPPPLQRFPPF

>  <assigned-class>
Mid

$$$$
>  <residue-string>
GVFGGAGCGVVL

>  <assigned-class>
High

$$$$
>  <residue-string>
PQLNRKAATPQN

>  <assigned-class>
Mid

$$$$
>  <residue-string>
PTPLSRPPTNAA

>  <assigned-class>
Mid

$$$$
>  <residue-string>
WGCGGGRDGCGV

>  <assigned-class>
Mid

$$$$
>  <residue-string>
PLSPSCCLRRPL

>  <assigned-class>
High

$$$$
>  <residue-string>
VRCCFGGRGGRA

>  <assigned-class>
Mid

$$$$
>  <residue-string>
RFGHLLRFSWLL

>  <assigned-class>
Mid

$$$$
>  <residue-string>
FVRGGWAVMLGG

>  <assigned-class>
Low

$$$$
>  <residue-string>
SSPLSSPLSTAP

>  <assigned-class>
Mid

$$$$
>  <residue-string>
DLFVFFVFHFFL

>  <assigned-class>
Low

$$$$
>  <residue-string>
ERFRWRRNRSLG

>  <assigned-class>
Mid

$$$$
>  <residue-string>
PHRPSPPIPLSV

>  <assigned-class>
Mid

$$$$
>  <residue-string>
SLRNSFPPLSSP

>  <assigned-class>
Mid

$$$$
>  <residue-string>
TASLQGCANGQS

>  <assigned-class>
Mid

$$$$
>  <residue-string>
VMYRGVRISWFL

>  <assigned-class>
Low

$$$$
>  <residue-string>
AYYRPQNLSPVT

>  <assigned-class>
Mid

$$$$
>  <residue-string>
SPPHLPPPLLST

>  <assigned-class>
Mid

$$$$
>  <residue-string>
FLLYSILLAFLL

>  <assigned-class>
Low

$$$$
>  <residue-string>
PPLYPPPRDLPP

>  <assigned-class>
Low

$$$$
>  <residue-string>
NFDNGAGLNRGG

>  <assigned-class>
Mid

$$$$
>  <residue-string>
GVSRGTGIGEGE

>  <assigned-class>
Mid

$$$$
>  <residue-string>
KYKELEAAALQK

>  <assigned-class>
High

$$$$
>  <residue-string>
YTWVDKNDRTKR

>  <assigned-class>
High

$$$$
>  <residue-string>
TTPPPLPSDPLR

>  <assigned-class>
Mid

$$$$
>  <residue-string>
GLGEGLVCFLLG

>  <assigned-class>
High

$$$$
>  <residue-string>
GGGARREGAGRG

>  <assigned-class>
Mid

$$$$
>  <residue-string>
IWVVIISDSRVG

>  <assigned-class>
Low

$$$$
>  <residue-string>
QKKKVKETRNER

>  <assigned-class>
Mid

$$$$
>  <residue-string>
GLVRWRWGDRPS

>  <assigned-class>
Low

$$$$
>  <residue-string>
LPAAPPPPPLPP

>  <assigned-class>
High

$$$$

* * *

# protein stability index values compiled below
Test system: Saccharomyces cerevisiae
assay-info: protein stability index of tFT-peptide fusion (C-terminal peptide) (PSI (0-1 scale)); higher = more stable (slower turnover)
assay-setup: genetic background: wild type; temperature: 30 C

>  <residue-string>
AWVEVYVISIGV

>  <protein stability index>
0.153

$$$$
>  <residue-string>
VSVQVRCCPWVG

>  <protein stability index>
0.629

$$$$
>  <residue-string>
MMEMMTKSNRIP

>  <protein stability index>
0.446

$$$$
>  <residue-string>
VCLVFVVRPCIR

>  <protein stability index>
0.414

$$$$
>  <residue-string>
VRLHIAMWLRRC

>  <protein stability index>
0.0999

$$$$
>  <residue-string>
FCTVYFVCVWEM

>  <protein stability index>
0.212

$$$$
>  <residue-string>
RICCLFILLFCL

>  <protein stability index>
0.365

$$$$
>  <residue-string>
CKYCKCVVLLWS

>  <protein stability index>
0.334

$$$$
>  <residue-string>
GCLGYTLSCFTY

>  <protein stability index>
0.51

$$$$
>  <residue-string>
FVSVWVFLVSSF

>  <protein stability index>
0.225

$$$$

* * *

Tested on: Saccharomyces cerevisiae
assay-info: protein stability index of tFT-peptide fusion (C-terminal peptide) (PSI (0-1 scale)); higher = more stable (slower turnover)
assay-setup: genetic background: wild type; temperature: 30 C
yes means recorded protein stability index is 0.3 or above; no means it is below 0.3.

>  <residue-string>
WVLFRLPYQFFS

>  <assigned-class>
yes

$$$$
>  <residue-string>
FLMLFVVLWLFL

>  <assigned-class>
yes

$$$$
>  <residue-string>
RVGWVVVLGCVG

>  <assigned-class>
yes

$$$$
>  <residue-string>
SYVFEFIVSVVF

>  <assigned-class>
no

$$$$
>  <residue-string>
YSGRYRTLVRCW

>  <assigned-class>
no

$$$$
>  <residue-string>
LCFTSVFTLFIC

>  <assigned-class>
no

$$$$
>  <residue-string>
LLVIAIKVPANS

>  <assigned-class>
yes

$$$$
>  <residue-string>
FWESHVLPYRLL

>  <assigned-class>
no

$$$$
>  <residue-string>
WSNICFWCGVWS

>  <assigned-class>
yes

$$$$
>  <residue-string>
VPQMLVSVCLSN

>  <assigned-class>
no

$$$$
>  <residue-string>
VGEQEVVGIGGV

>  <assigned-class>
yes

$$$$
>  <residue-string>
RYLCLTPALYLS

>  <assigned-class>
no

$$$$
>  <residue-string>
LFFSPRRLSPPT

>  <assigned-class>
yes

$$$$
>  <residue-string>
ERRWKRKVIGLC

>  <assigned-class>
no

$$$$
>  <residue-string>
VFSVSVLFLFFH

>  <assigned-class>
no

$$$$
>  <residue-string>
VAFVVALSLIFL

>  <assigned-class>
yes

$$$$
>  <residue-string>
LFVMVSVSGLVV

>  <assigned-class>
no

$$$$
>  <residue-string>
LFIVTFIPVLFS

>  <assigned-class>
yes

$$$$
>  <residue-string>
IILAIRLLVDTL

>  <assigned-class>
no

$$$$
>  <residue-string>
FPRPLPVPLAVS

>  <assigned-class>
no

$$$$
>  <residue-string>
FWWVGCGWCRWG

>  <assigned-class>
no

$$$$
>  <residue-string>
LAVFSSPELSFP

>  <assigned-class>
yes

$$$$
>  <residue-string>
LPVPVLGFPPLA

>  <assigned-class>
yes

$$$$
>  <residue-string>
WDPEVVHRLWLN

>  <assigned-class>
no

$$$$
>  <residue-string>
LCLLPVCLWDVG

>  <assigned-class>
yes

$$$$
>  <residue-string>
VFVMVLCALFYF

>  <assigned-class>
no

$$$$
>  <residue-string>
LWLVSLLVLWLT

>  <assigned-class>
no

$$$$
>  <residue-string>
VIRSIVSAYMIC

>  <assigned-class>
no

$$$$
>  <residue-string>
FVLWWGWSWLVV

>  <assigned-class>
no

$$$$
>  <residue-string>
VERKLMTIYIKI

>  <assigned-class>
yes

$$$$
>  <residue-string>
SFFFTLLICFLF

>  <assigned-class>
no

$$$$
>  <residue-string>
DILCGRCMIVGA

>  <assigned-class>
yes

$$$$
>  <residue-string>
FPPCSFLGFLVF

>  <assigned-class>
yes

$$$$
>  <residue-string>
DFWMLLFGIIFA

>  <assigned-class>
yes

$$$$
>  <residue-string>
YCLSCLAKASLM

>  <assigned-class>
no

$$$$
>  <residue-string>
GWVQFVKAAVLF

>  <assigned-class>
no

$$$$
>  <residue-string>
LWFRCVRMQACR

>  <assigned-class>
yes

$$$$
>  <residue-string>
KLLISLTWFCVL

>  <assigned-class>
no

$$$$
>  <residue-string>
LLFLVCFFPSIS

>  <assigned-class>
yes

$$$$
>  <residue-string>
YMPKHKIQKLMQ

>  <assigned-class>
yes

$$$$
>  <residue-string>
CICAFCSLNLLC

>  <assigned-class>
yes

$$$$
>  <residue-string>
VMYRGVRISWFL

>  <assigned-class>
yes

$$$$
>  <residue-string>
GGWRVLHAWVAV

>  <assigned-class>
yes

$$$$
>  <residue-string>
LVVAVLKIIMSS

>  <assigned-class>
no

$$$$
>  <residue-string>
VVWIQRTVLSLI

>  <assigned-class>
no

$$$$
>  <residue-string>
ETYCLPRVASGI

>  <assigned-class>
yes

$$$$
>  <residue-string>
LVSLCYAYPRYC

>  <assigned-class>
no

$$$$
>  <residue-string>
FECLLFVNLLVI

>  <assigned-class>
no

$$$$
>  <residue-string>
FFLFLFFFLRGS

>  <assigned-class>
yes

$$$$
>  <residue-string>
GGGWCVWMVWFG

>  <assigned-class>
no

$$$$
>  <residue-string>
FLLYSILLAFLL

>  <assigned-class>
yes

$$$$
>  <residue-string>
IRDGPWKRVLVV

>  <assigned-class>
no

$$$$
>  <residue-string>
GRGGLRVVVWLV

>  <assigned-class>
no

$$$$
>  <residue-string>
TRVVSPNVILMC

>  <assigned-class>
yes

$$$$
>  <residue-string>
FLFLSPLALHVS

>  <assigned-class>
no

$$$$
>  <residue-string>
GGSKIGFTVGGG

>  <assigned-class>
yes

$$$$
>  <residue-string>
VYFRMGFMRVCV

>  <assigned-class>
yes

$$$$
>  <residue-string>
FNLWCRQLASIE

>  <assigned-class>
no

$$$$
>  <residue-string>
LSVSEILAVKCG

>  <assigned-class>
yes

$$$$
